- Tested on: human skin malignant melanoma cell line A2058
- Type: cell-based
- Condition description: serum-free RPMI-1640 medium; 24 hours; maximum 200 μg/ml; read-out: Antitumoral activity IC50, A2058
- Description: The cytotoxic effects of the peptides on different human tumour cells were measured using the MTT colorimetric assay (Mosmann, 1983). […] This water insoluble formazan can be solubilized using isopropanol or other solvents and the dissolved material is measured spectrophotometrically. The absorbance was measured as a function of concentration of converted dye. […] The cytotoxicity was measured using the MTT method (Mosmann, 1983), with minor modifications. […]
Readout kind: IC50

| Compound | Target entity | Result |
| --- | --- | --- |
| NC(Cc1c[nH]c2cc(Br)ccc12)C(=O)O [6-D/L-Br-Trp, 6-Bromo-D/L-tryptophan, reference compound] | human skin malignant melanoma cell line A2058 | 655 µM |

// provenance: patent US20100093642A1
